Tested on: NIH-3T3 viability, ATP luminescence
experiment.description: murine fibroblast viability via ATP level – cell-based, murine fibroblasts, cytotoxicity control for Trypanosoma cruzi inhibitor project (AID 1159561)
condition.label: 4 days
Calls of active or inactive are those of the source.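 Rule for the calls: active = toxic to mouse fibroblast host cells, with IC50 below 50 µM; inactive = the rest.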
Pick from t for active, f for inactive when you respond.

Please review the entries below; each comes with its answer.
In [3]: df
Out[3]:
                                   compound                         study_system  answer_label
0  COc1cccc(-c2cc(C(F)(F)F)nc(-n3ccc([N+](=O)[O-])n3)n2)c1  NIH-3T3 viability, ATP luminescence             f
1  Cc1ccc(NC(=O)C(C)n2nc([N+](=O)[O-])c(Br)c2C)cc1Cl (stereo not given)  NIH-3T3 viability, ATP luminescence             t
2  CN(Cc1ccc(C(N)=O)cc1)C(c1ccc(F)cc1)c1cccnc1 (stereo not given)  NIH-3T3 viability, ATP luminescence             t
3  COc1ccc(C(C)N(C)c2ncc3c(N)nc(N)nc3n2)cc1F (stereo not given)  NIH-3T3 viability, ATP luminescence             t
4  O=S(=O)(NCC(c1cccnc1)N1CCN(c2ccc(F)cc2)CC1)c1cccs1 (stereo not given)  NIH-3T3 viability, ATP luminescence             f
5  COc1ccc(CN(C)Cc2ccncc2)cc1-c1ccc(S(=O)(=O)NC2CCC2)s1  NIH-3T3 viability, ATP luminescence             t

Request: Recorded test call requested for O=C(N1CCc2ccccc2CC1)C1(C(=O)N2CCC(n3c(=O)[nH]c4ncccc43)CC2)CC1
Response: t

Request: Recorded test call requested for CS(=O)(=O)c1cccc(CNC(=O)c2cncc(N3CCN(c4ccc(F)cc4)CC3)c2)c1
Response: t

Request: Recorded test call requested for O=[N+]([O-])c1cccc(Nc2cncc(-c3ccccc3CO)c2)c1
Response: t

Request: Recorded test call requested for O=C(NCCNc1noc(-c2ccc([N+](=O)[O-])cc2)n1)c1ccc(Cl)cc1
Response: f

----------
Test system: NIH-3T3 viability, ATP luminescence
experiment.description: murine fibroblast viability via ATP level – cell-based, murine fibroblasts, cytotoxicity control for Trypanosoma cruzi inhibitor project (AID 1159561)
condition.label: 4 days
Activity calls are given as the source filed them.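 How the source made its calls: active means toxic to mouse fibroblast host cells, with IC50 below 50 µM; inactive means the rest.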
Pick from active, inactive when you respond.

Please review the entries below; each comes with its answer.
                                   compound  answer_label
0          CC(=O)Nc1nc(-c2cc(C)ccc2C)c(C)s1        active
1            Cc1cc(C#N)c([N+](=O)[O-])cc1Br        active
2  NC(=O)c1ccc(-c2cccc(OCCN3CCN(C4CCCCC4)CC3)c2)cc1        active

Request: Recorded test call requested for CNc1cc(C)nc(C2CN(C(=O)c3n[nH]c4ccccc34)CCO2)c1 (stereo unspecified)
Response: inactive

Request: Recorded test call requested for CN(Cc1ccc(F)cc1)c1ccc(OCC(=O)N2CCCCC2c2cccnc2)nn1 (stereo unspecified)
Response: active

----------
System: NIH-3T3 viability, ATP luminescence
experiment.description: murine fibroblast viability via ATP level – cell-based, murine fibroblasts, cytotoxicity control for Trypanosoma cruzi inhibitor project (AID 1159561)
condition.label: 4 days
Active and inactive are the calls of the source.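 Rule for the calls: active = toxic to mouse fibroblast host cells, with IC50 below 50 µM; inactive = the rest.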
readout.name: IC50

Below are worked cases with known answers.
>>> df
                                   compound  test_value
0  COc1ccc2ncc(=O)n(CCN3CCOC(CNCc4ccc(C(F)(F)F)cc4F)C3)c2n1 (stereo not given)        4 µM
1  O=C(NC(c1ccc(Cl)cc1)c1cnccn1)C1CCN(C(=O)Nc2cccc(C(F)(F)F)c2)CC1 (stereo not given)       40 µM
2  O=C1CCCCCC1(Cc1cnc[nH]1)c1ccc(Cl)cc1Cl (stereo not given)       20 µM
3  CCN(CC)S(=O)(=O)c1ccc(Cn2nc(C(=O)Nc3ccncn3)c3ccccc32)cc1       40 µM

We now examine a further compound.
Request: Requested read-out IC50, target or system NIH-3T3 viability, ATP luminescence, entry CCC(=O)Nc1ccc(C(=O)Nc2ccccc2-c2ccccc2)cc1
Response: > 50 µM (inactive)

src = PubChem BioAssay AID1159561
